# Measurement Target: T1, human TREM2 (human, UniProt Q9NZC2 19-174, limits assumed)
# T1 construct: also called triggering receptor expressed on myeloid cells 2
# T1 sequence: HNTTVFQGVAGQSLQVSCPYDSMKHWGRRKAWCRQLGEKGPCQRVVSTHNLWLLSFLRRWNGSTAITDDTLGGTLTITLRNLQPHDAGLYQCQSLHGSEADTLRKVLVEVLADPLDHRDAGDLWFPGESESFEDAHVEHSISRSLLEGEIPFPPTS
# Assay Summary: 2nd screen, 2 nM
Below: a set of entries, each annotated with reported Binding Signal.

Example cases with answers are listed next.
>  <Binder>
V61 (antibody, V domains shown, also called 6E7 variant V61) VH: EVQLVQSGAEVKKPGESLKISCKGSGYSFSSYWIAWVRQMPGKGLEWMGIIYPGDSDTRYNPSFQGQVTISADKSISTAYLQWSSLKASDTAMYFCARGRTFYYDSSDYFDYWGQGTLVTVSS VL: DIQMTQSPSSVSASVGDRVTITCRASQGISSWLAWYQQKPGKAPKLLIYAASSLVNGVPSRFSGSGSGTDFTLTISSLQPEDFATYFCQQADSLPRTFGQGTKLEIK

>  <Test Readout>
Binding Signal

>  <Observed>
3.63 fold over 6E7 parental antibody

$$$$
>  <Binder>
V65 (antibody, V domains shown, also called 6E7 variant V65) VH: EVQLVQSGAEVKKPGESLKISCKGSGYSFTSYWIAWVRQMPGKGLEWMGIIYPGDSDTRYSPSFQGQVTISADKSISTAYLQWSSLKASDTAMYFCARSRTFYYDSSDYFDYWGQGTLVTVSS VL: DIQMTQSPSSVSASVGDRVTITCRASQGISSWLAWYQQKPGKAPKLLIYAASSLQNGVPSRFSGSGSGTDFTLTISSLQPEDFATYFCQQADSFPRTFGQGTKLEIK

>  <Test Readout>
Binding Signal

>  <Observed>
1.29 fold over 6E7 parental antibody

$$$$

Tell me its Binding Signal given V13 (antibody, V domains shown, also called 6E7 variant V13) VH: EVQLVQSGAEVKKPGESLKISCKGSGYSFGSYWIAWVRQMPGKGLEWMGIIYPGDSDTRYSASFQGQVTISADKSISTAYLQWSSLKASDTAMYFCARGRTFYYDSSDYFDYWGQGTLVTVSS VL: DIQMTQSPSSVSASVGDRVTITCRASQGISSWLAWYQQKPGKAPKLLIYAASSLQGGVPSRFSGSGSGTDFTLTISSLQPEDFATYFCQQADSMPRTFGQGTKLEIK as the entry. 1.15 fold over 6E7 parental antibody

src = patent US20250326839A1
